Molecular target: IL1RL1 with the extracellular risk allele (rs1041973 [C]) and the TIR signalling domain risk haplotype (rs10192157 [C]) (human) (UniProt Q01638)
reported metric: SEAP EC50 Risk:Risk (NF-κB SEAP reporter, transfected HEK293) (nM)
Quick note: give the figure in nM, leave out the unit.

Record IL33_(112–270) (ABNOVA) (ligand) SITGISPITEYLASLSTYNDQSITFALEDESYEIYVEDLKKDEKKDKVLLSYYESQHPSNESGDGVDGKMLMVTLSPTKDFWLHANNKEHSVELHKCEKPLPDQAFFVLHNMHSNCVSFECKTDPGVFIGVKDNHLALIKVDSSENLCTENILFKLSET . Reported SEAP EC50 Risk:Risk (NF-κB SEAP reporter, transfected HEK293): 0.0462

Record IL33_(99–270) (ligand) SGVQKYTRALHDSSITGISPITEYLASLSTYNDQSITFALEDESYEIYVEDLKKDEKKDKVLLSYYESQHPSNESGDGVDGKMLMVTLSPTKDFWLHANNKEHSVELHKCEKPLPDQAFFVLHNMHSNCVSFECKTDPGVFIGVKDNHLALIKVDSSENLCTENILFKLSET . Reported SEAP EC50 Risk:Risk (NF-κB SEAP reporter, transfected HEK293): 0.0292
